Test system: Rattus norvegicus
Method Description: Anti-inflammatory activity against carrageenan-induced paw edema in albino rat assessed as inhibition of paw edema at 100 mg/kg, po pretreated for 1 hr followed by carrageenan challenge measured after 1 to 7 hrs relative to control
Assay type: functional
Kindly state inhibition in vivo at 100 mg/kg for each of the entries shown.
Give bare numbers, in %.

Some compounds with known inhibition in vivo at 100 mg/kg results, for comparison:
Mol	inhibition in vivo at 100 mg/kg / %
CN1CCN(C(=O)Cn2cnc(-c3ccccc3)c2-c2ccccc2)CC1	60.5
COc1ccc(-c2nc(NCC(=O)N3CCOCC3)sc2-c2ccc(OC)cc2)cc1	54.5
COc1ccc(-c2ncn(CC(=O)N3CCN(C)CC3)c2-c2ccc(OC)cc2)cc1	58.8
COc1ccc(-c2ncn(CC(=O)O)c2-c2ccc(OC)cc2)cc1	57

Input: What value of inhibition in vivo at 100 mg/kg has been recorded for this entry: O=C(CNc1nc(-c2ccccc2)c(-c2ccccc2)s1)N1CCOCC1
Output: 59.8
